- Experiment: Base generation temperature by differential scanning calorimetry
- Assay type: physicochemical
- Protocol conditions: DSC, heated to 250° C. at 5° C./min in pressure-resistant capsule; peak temperature of lowest exothermic peak

Compound: CN(CC(=O)O)CC(=O)O [X-7, reference compound]
Base generation temperature: Higher than 200 °C
--
Compound: C=C(C)C(=O)OC(CO)N(CC(=O)O)c1ccccc1 (centres unmarked) [X-4, reference compound]
Base generation temperature: Higher than 200 °C
--
Compound: C=Cc1ccc(NCC(=O)O)cc1 [X-5, reference compound]
Base generation temperature: Higher than 200 °C
--
Compound: O=C(O)CNc1ccccc1 [X-6, reference compound]
Base generation temperature: Higher than 200 °C
